B1: EPB41L3 (parent)
chain: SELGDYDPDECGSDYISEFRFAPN

variants of: B1; assay: protein stability index of a GFP-peptide fusion (GPS, HEK-293T) (PSI 1-6); higher = more stable; details: c terminus: a fixed tail appended;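 note: lentivirally expressed fusions sorted by FACS into six bins by GFP to DsRed ratio, PSI derived from sequencing read proportions per bin multiplied by bin number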
experimental-endpoint: protein stability index
Answers are plain numbers.

> print(dat)
                             chain  observed.value
1  SELGDYDPDECGSDYIREFRFAPN [S17R]            2.34
2  SELGDYDPDECGSDYILEFRFAPN [S17L]            2.68
3  SELGDYDPDECGSDYISEFRFANN [P23N]            2.42
4   SELGDYDTDECGSDYISEFRFAPN [P8T]            1.92
5   SELGDYDMDECGSDYISEFRFAPN [P8M]            2.08

Could you report protein stability index for every entry in the following list?
1. SELGDYDPDECGSDYISVFRFAPN [E18V]
2. SECGDYDPDECGSDYISEFRFAPN [L3C]
3. SELGDYDPDECGDDYISEFRFAPN [S13D]
4. SELGDYDPDECGSDIISEFRFAPN [Y15I]

Output:
1. 2.06
2. 2.15
3. 2.7
4. 2.5

Could you report protein stability index for every entry in the following list?
1. SELGDYDPDECGSDYIHEFRFAPN [S17H]
2. SELGDYDPDECGSDYISSFRFAPN [E18S]

Output:
1.88
2.15

Could you report protein stability index for every entry in the following list?
1. SELGDYDPDECGSDYISEFRFQPN [A22Q]
2. SELGDYDPDECGSDYISEFPFAPN [R20P]

Output:
1: 2.39; 2: 4.81
